# EXPERIMENTAL TARGET: FabF (Escherichia coli, UniProt P0AAI5)
# Sequence (P0AAI5 2-413): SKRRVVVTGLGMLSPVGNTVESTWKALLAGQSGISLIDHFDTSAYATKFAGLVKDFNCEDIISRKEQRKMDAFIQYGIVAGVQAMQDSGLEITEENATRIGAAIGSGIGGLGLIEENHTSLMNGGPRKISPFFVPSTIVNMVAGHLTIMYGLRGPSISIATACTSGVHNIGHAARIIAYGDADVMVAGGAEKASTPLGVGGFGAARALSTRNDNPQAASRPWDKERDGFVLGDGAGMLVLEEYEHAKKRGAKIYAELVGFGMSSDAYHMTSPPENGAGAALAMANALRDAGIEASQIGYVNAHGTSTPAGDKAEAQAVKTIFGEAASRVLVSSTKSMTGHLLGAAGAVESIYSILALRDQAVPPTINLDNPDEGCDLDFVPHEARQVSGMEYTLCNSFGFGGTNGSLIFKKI
# METHOD DESCRIPTION: microscale thermophoresis
# Format: binding
Where a SMILES comes first, the peptide text is derived from it.
EXPERIMENTAL READOUT: Kd

Data request: Bench note: what Kd did CC(C)CC(NC(=O)C(N)C(C)C)C(=O)O (stereo not drawn) [Val-Leu] (H-Val-Leu-OH; configuration not given here) show?
Data returned: 12 to 14 µM

* * *

# EXPERIMENTAL TARGET: orotate phosphoribosyltransferase (PyrE) (Escherichia coli, UniProt P0A7E3)
# Sequence (P0A7E3 2-213): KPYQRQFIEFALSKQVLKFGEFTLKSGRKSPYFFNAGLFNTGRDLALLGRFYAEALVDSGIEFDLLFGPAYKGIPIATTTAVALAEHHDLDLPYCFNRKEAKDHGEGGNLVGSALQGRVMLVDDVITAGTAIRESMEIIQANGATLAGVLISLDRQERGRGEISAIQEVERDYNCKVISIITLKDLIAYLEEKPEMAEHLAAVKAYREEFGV
# METHOD DESCRIPTION: microscale thermophoresis
# Format: binding
EXPERIMENTAL READOUT: pKd
The quantity pKd is defined as the negative base-10 logarithm of the molar concentration.

Data request: Report pKd for Cc1cc2nc3[nH]c(=O)[nH]c(=O)c3nc2cc1C [lumichrome] please.
Data returned: 4.04

Measured values drawn from paper PMC12148380 for this set.
